Origin of the recorded values: PubChem BioAssay (NCI)

Each item that follows carries a reported growth.
# Tested on: HOP-62 NSCLC
# method-description: NCI-60 one-dose screen, 48 h (100 = growth as untreated, 0 = no growth, -100 = all killed)
# condition-set: 10 µM unless noted
# Experimental: Growth inhibition of the HOP-62 human Non-Small Cell Lung tumor cell line is measured as a screen for anti-cancer activity. Cells are grown in 96 well plates and exposed to the test compound for 48 hours. Compounds are tested at a single concentration, which is 10^-5 M for most compounds. The reported endpoint is percent growth (GI% or GIPRCNT), where numbers from 0 - 100% represent growth inhibition, and numbers from -100% - 0 represent cell death. […]
This is part of a sample that, as a whole, favours compounds with a hit. Of some 83,000 tested, about 20% had one in any assay.
quantity: growth (%)

INSERT INTO results (compound, recorded_value) VALUES
  ('FC(F)(F)c1cccc(Oc2ccc(Nc3ncnc4ccc(OCCCN5CCOCC5)cc34)cc2Cl)c1', 62.3),
  ('CCCc1cc2c(cc1Br)OCO2', 84),
  ('COc1ccncc1C#Cc1cncc(C(=O)Nc2ccc(CN3CCN(C)CC3)c(C(F)(F)F)c2)c1', 38.9),
  ('CC(=O)N1c2ccccc2NC2=C(C(=O)N(Cc3ccccc3)C2(C)C)C1c1ccco1 (stereo not given)', 33.1),
  ('Cc1ccc2nc3c(cc2c1)CSc1nnc(-c2ccc[nH]c2=S)n1N3', 95.8);
